Experiment: Measurement of Sodium Ion Channel Blocking Effects: In order to measure the sodium ion channel blocking effect, an IonFlux16 Auto patch clamp system (Fluxion, Inc.) and a plate for exclusive use were used. The cells were distributed in an extracellular solution (4 mM KCl, 138 mM NaCl, 1 mM MgCl2, 1.8 mM CaCl2, 5.6 mM glucose, 10 mM HEPES, pH 7.45), and then dispensed in the specified region of the plate, and each of the prepared compound samples was diluted at various concentrations, and then dispensed in the specified region of the plate.
Type: cell-based
pIC50: −log10 of the molar value.
Recorded metric: pIC50

O=S(=O)(Nc1cscn1)c1cc(Cl)c(Nc2ccc(F)cc2N2CCCNCC2)cc1F has a reported pIC50 of 6.83

COc1ccc(Nc2cc(F)c(S(=O)(=O)Nc3cscn3)cc2Cl)c(N2CC[C@H](N(C)C)C2)c1 has a reported pIC50 of 6.36

CNC1CCN(c2cc(C)ccc2Nc2cc(F)c(S(=O)(=O)Nc3cscn3)cc2Cl)C1 (centres undefined) has a reported pIC50 of 6.31

CNCCN(C)c1cc(OC)ccc1Nc1cc(F)c(S(=O)(=O)Nc2ccc(F)cn2)cc1Cl has a reported pIC50 of 6.70

CNCCN(C)c1ccccc1Nc1cc(F)c(S(=O)(=O)Nc2ncc(F)cn2)cc1Cl has a reported pIC50 of 7.00

I: CNC1CCN(c2cc(Cl)ccc2Nc2cc(F)c(S(=O)(=O)Nc3cscn3)cc2Cl)C1 (centres undefined)
II: O=S(=O)(Nc1cscn1)c1cc(Cl)c(Nc2ccc(F)cc2N2CC[C@@H](F)C2)cc1F
Ask: Form field 'greater pIC50' accepts I or II ; which applies? Answer by stating the label of the chosen item.
Reply: I
